Test: BSK_hDFCGF_Proliferation: Cell Proliferation Assessment in the BioMAP Diversity Plus: hDFCGF Assay (AID 2283059);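 note: curves fitted for both rise and fall of signal versus DMSO baseline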
Settings: primary human foreskin fibroblasts
Procedure: BSK_hDFCGF is a cell-based, multiplexed-readout assay that uses foreskin fibroblast, a human skin primary cell, with measurements taken at 24 hours after chemical dosing in a 96-well plate.BSK_hDFCGF_Proliferation is an assay component measured in the BSK_hDFCGF assay. It measures […] related to cell proliferation using Sulforhodamine staining technology.Data from the assay component BSK_hDFCGF_Proliferation was analyzed into 1 assay endpoint. […]
The source made the active and inactive calls. Rule for the calls: active = hit-call score of the fitted dose curve at least 0.9, where 1 is the maximum; inactive = score below 0.9.
Your response should consist of one outcome taken from active, inactive

Field: example entries. Status: answers known.
CCOP(=O)(NC(C)C)Oc1ccc(SC)c(C)c1 (stereo not given) ... inactive
S=C1NCCN1 ... inactive
CCOP(=S)(OCC)Oc1ccc([N+](=O)[O-])cc1 ... active
CSc1nnc(C(C)(C)C)c(=O)n1N ... inactive
CNc1cnn(-c2cccc(C(F)(F)F)c2)c(=O)c1Cl ... inactive
CCCOCC(=Nc1ccc(Cl)cc1C(F)(F)F)n1ccnc1 ... active
CN(C)C(=O)Nc1cccc(C(F)(F)F)c1 ... inactive
CCNc1nc(Cl)nc(NC(C)(C)C#N)n1 ... active
CCOC(=O)COc1cc(-c2nn(C)c(OC(F)F)c2Cl)c(F)cc1Cl ... inactive
CC1(C(=O)Nc2ccc(O)c(Cl)c2Cl)CCCCC1 ... inactive

Please state the recorded outcome for this compound: Nc1c(Cl)cc([N+](=O)[O-])cc1Cl active

Please state the recorded outcome for this compound: C#CCC1=C(C)C(OC(=O)C2C(C=C(C)C)C2(C)C)CC1=O (stereo not given) active

Please state the recorded outcome for this compound: COc1cccc(C(=O)NN(C(=O)c2cc(C)cc(C)c2)C(C)(C)C)c1C inactive

Please state the recorded outcome for this compound: CCCSP(=O)(OCC)Oc1ccc(Br)cc1Cl (stereo not given) active
